Measured values drawn from paper PMC10079573 for this set.

- procedure.summary: in vitro
- Assay type: in vitro ADME, mice
- test.settings: mouse, plasma, pH 7.4, % Bound R1
quantity.measured: fraction unbound at 4 h, 5 µM
// no unit, no text: just the number

Would you mind telling me what fraction unbound at 4 h, 5 µM value was observed for CC(=O)CC(c1ccccc1)c1c(O)c2ccccc2oc1=O (stereo not shown) [Warfarin] ? 0.058

----------
- procedure.summary: in vitro
- Type: in vitro ADME, mice
- test.settings: mouse, pH 7.4
quantity.measured: recovery at 4 h, 5 µM

Request the reported recovery at 4 h, 5 µM associated with CC(=O)CC(c1ccccc1)c1c(O)c2ccccc2oc1=O (stereo not shown) 94%
